Numbers sourced from a melting point compilation (Tetko et al.; mined from patent text by program, amines drawn as free bases though some values may be those of a salt).

Metric: melting point

Consider the following illustrative entries.
>  <Molecule>
O=CN1CCN(c2ccnc(Cl)n2)CC1

>  <Metric>
melting point

>  <Assay result>
125 to 126 °C

$$$$
>  <Molecule>
COC(OCCc1nc(C(C)C)c(Sc2cc(Cl)cc(Cl)c2)n1C)(c1ccccc1)c1ccccc1

>  <Metric>
melting point

>  <Assay result>
107 to 108 °C

$$$$
>  <Molecule>
COc1[nH]c(C)c(SC(F)(Cl)Cl)c1C#N

>  <Metric>
melting point

>  <Assay result>
175 °C

$$$$
>  <Molecule>
CNc1nc(-c2cccc(NC(=O)Cc3ccccc3)c2)c2cc(OC)c(OC)cc2n1

>  <Metric>
melting point

>  <Assay result>
175 to 177 °C

$$$$
>  <Molecule>
CCCc1ccc(-c2ccc(C(=O)N3Cc4cccn4Cc4ccccc43)cc2)cc1

>  <Metric>
melting point

>  <Assay result>
118 to 120 °C

$$$$

*Q* Return reported melting point; argument: COc1cc2c(c(-c3ccccc3F)c1)OC(CN)C2 (stereo unspecified)
*A* > 250 °C

*Q* Return reported melting point; argument: CCCCS(=O)(=O)N[C@@H](Cc1ccc(NC(=O)NC(=O)c2ccc(C#N)cc2)cc1)C(=O)OC(C)(C)C
*A* 171 to 173 °C

*Q* Return reported melting point; argument: CS(=O)(=O)C(=C1CN(C(c2ccccc2)c2ccccc2)C1)c1cccc(N2CCCC2)c1
*A* 153 °C

*Q* Return reported melting point; argument: Nc1ccc(OC2CCN(c3ccncc3)CC2)cc1
*A* 209 to 210 °C

*Q* Return reported melting point; argument: CC1N=C(NN2CCCCC2)NN=C1c1ccccc1 (stereo unspecified)
*A* 188 to 190 °C
